Sourced from patent US20250051338A1

# system under test: TYK2 (Homo sapiens)
# test summary: TYK2 degradation MSD assay in human PBMC cells
# Type: cell-based
# Design: endogenous in cells; host or cells: human PBMC
# condition: 4 to 24 hours incubation, read-out: TYK2 MSD DC50 rating in human PBMC
Item-by-item account of DC50

Example cases with answers are listed next.
CNc1cc(Nc2cccn(C3CCN(C(=O)N(C)CC4CCN(c5ccc6c(c5)n(C)c(=O)n6C5CCC(=O)NC5=O)CC4)CC3)c2=O)nn2c(C(=O)N[C@@H]3C[C@@H]3F)cnc12 (some centres unmarked) :: > 100 nM
CNc1cc(Nc2cccn(-c3ccc(C(=O)NCCCCc4ccc5c(c4)n(C)c(=O)n5C4CCC(=O)NC4=O)cn3)c2=O)nn2c(C(=O)NC3CCC3)cnc12 (centres unmarked) :: > 100 nM
CNC1=CC(Nc2cccc(-c3ccc(CN4CCN(CC5CCN(C(=O)c6ccc(Cl)c(N7CCC(=O)NC7=O)c6)CC5)CC4)cn3)c2)=NC2C(C(=O)N[C@@H]3C[C@@H]3F)=CN=C12 (some centres unmarked) :: > 100 nM
Cn1c(=O)n(C2CCC(=O)NC2=O)c2cccc(CCCCCCNc3cc(Nc4cccn(-c5ccccn5)c4=O)nn4c(C(=O)N[C@@H]5C[C@@H]5F)cnc34)c21 (some centres unmarked) :: > 100 nM
CNc1cc(Nc2cccc(C3CCN(CCc4cccc5c4n(C)c(=O)n5C4CCC(=O)NC4=O)CC3)c2)nn2c(C(=O)N[C@@H]3C[C@@H]3F)cnc12 (some centres unmarked) :: > 100 nM
CNc1cc(Nc2ccccc2C(=O)NCCCCc2cccc3c2n(C)c(=O)n3C2CCC(=O)NC2=O)nn2c(C(=O)N[C@@H]3C[C@@H]3F)cnc12 (some centres unmarked) :: > 100 nM

Form: item CNC(=O)c1cnc(Nc2ccc(CN3CCN(CC4CCN(c5ccc(-c6ccc7c(c6)n(C)c(=O)n7C6CCC(=O)NC6=O)cc5)CC4)CC3)cn2)cc1Nc1cccc(-c2ncc(F)cn2)c1OC (centres unmarked) ; test system TYK2 (Homo sapiens); DC50: < 1 nM

Form: item CNc1cc(Nc2cccn(-c3cccc(C(=O)NCCOCCOCCc4cccc5c4n(C)c(=O)n5C4CCC(=O)NC4=O)c3)c2=O)nn2c(C(=O)N[C@@H]3C[C@@H]3F)cnc12 (some centres unmarked) ; test system TYK2 (Homo sapiens); DC50: 1 to 10 nM

Form: item CNc1cc(-c2cccc(C(=O)NCCCCCCCCc3ccc4c(c3)n(C)c(=O)n4C3CCC(=O)NC3=O)c2)nn2c(C(=O)NC3C[C@@H]3F)cnc12 (some centres unmarked) ; test system TYK2 (Homo sapiens); DC50: > 100 nM

Form: item CNc1cc(Nc2cccc(-c3ccc(CN4CCN(CC#Cc5cccc6c5n(C)c(=O)n6C5CCC(=O)NC5=O)CC4)cn3)c2)nn2c(C(=O)N[C@@H]3C[C@@H]3F)cnc12 (some centres unmarked) ; test system TYK2 (Homo sapiens); DC50: > 100 nM

Form: item CNc1cc(Nc2cccn(-c3cc(C(=O)NCCOCCOCCOCCOCCc4cccc5c4n(C)c(=O)n5C4CCC(=O)NC4=O)ccn3)c2=O)nn2c(C(=O)N[C@@H]3C[C@@H]3F)cnc12 (some centres unmarked) ; test system TYK2 (Homo sapiens); DC50: > 100 nM

====

# system under test: TYK2 (Homo sapiens)
# test summary: TYK2 degradation MSD assay in human PBMC cells
# Format: cell-based
# Parameters: endogenous in cells; host or cells: human PBMC
# condition: 4 to 24 hours incubation, read-out: TYK2 MSD DC50 rating in human PBMC
property name: DC50

Example cases with answers are listed next.
CNc1cc(Nc2cccc(-c3ccc(CN4CCC(N5CCN(c6ccc7c(c6)n(C)c(=O)n7C6CCC(=O)NC6=O)CC5)C(F)(F)C4)cn3)c2OC)nn2c(C(=O)NC3CC3F)cnc12 (stereo not drawn) :: > 100 nM
CNc1cc(N2CCCc3c(-c4ccc(CC5CCC(c6ccc(-c7ccc8c(c7)n(C)c(=O)n8C7CCC(=O)NC7=O)cc6)CC5)cn4)cccc32)nn2c(C(=O)N[C@@H]3C[C@@H]3F)cnc12 (stereo partly drawn) :: > 100 nM

// switching to the query molecule
Form: item CNc1cc(Nc2cccn(-c3ccc(C(=O)NCCOCCOCCc4ccc5c(c4)n(C)c(=O)n5C4CCC(=O)NC4=O)cn3)c2=O)nn2c(C(=O)N[C@@H]3C[C@@H]3F)cnc12 (stereo partly drawn) ; test system TYK2 (Homo sapiens); DC50: 1 to 10 nM

====

# system under test: TYK2 (Homo sapiens, UniProt P29597)
# Sequence (P29597 whole entry): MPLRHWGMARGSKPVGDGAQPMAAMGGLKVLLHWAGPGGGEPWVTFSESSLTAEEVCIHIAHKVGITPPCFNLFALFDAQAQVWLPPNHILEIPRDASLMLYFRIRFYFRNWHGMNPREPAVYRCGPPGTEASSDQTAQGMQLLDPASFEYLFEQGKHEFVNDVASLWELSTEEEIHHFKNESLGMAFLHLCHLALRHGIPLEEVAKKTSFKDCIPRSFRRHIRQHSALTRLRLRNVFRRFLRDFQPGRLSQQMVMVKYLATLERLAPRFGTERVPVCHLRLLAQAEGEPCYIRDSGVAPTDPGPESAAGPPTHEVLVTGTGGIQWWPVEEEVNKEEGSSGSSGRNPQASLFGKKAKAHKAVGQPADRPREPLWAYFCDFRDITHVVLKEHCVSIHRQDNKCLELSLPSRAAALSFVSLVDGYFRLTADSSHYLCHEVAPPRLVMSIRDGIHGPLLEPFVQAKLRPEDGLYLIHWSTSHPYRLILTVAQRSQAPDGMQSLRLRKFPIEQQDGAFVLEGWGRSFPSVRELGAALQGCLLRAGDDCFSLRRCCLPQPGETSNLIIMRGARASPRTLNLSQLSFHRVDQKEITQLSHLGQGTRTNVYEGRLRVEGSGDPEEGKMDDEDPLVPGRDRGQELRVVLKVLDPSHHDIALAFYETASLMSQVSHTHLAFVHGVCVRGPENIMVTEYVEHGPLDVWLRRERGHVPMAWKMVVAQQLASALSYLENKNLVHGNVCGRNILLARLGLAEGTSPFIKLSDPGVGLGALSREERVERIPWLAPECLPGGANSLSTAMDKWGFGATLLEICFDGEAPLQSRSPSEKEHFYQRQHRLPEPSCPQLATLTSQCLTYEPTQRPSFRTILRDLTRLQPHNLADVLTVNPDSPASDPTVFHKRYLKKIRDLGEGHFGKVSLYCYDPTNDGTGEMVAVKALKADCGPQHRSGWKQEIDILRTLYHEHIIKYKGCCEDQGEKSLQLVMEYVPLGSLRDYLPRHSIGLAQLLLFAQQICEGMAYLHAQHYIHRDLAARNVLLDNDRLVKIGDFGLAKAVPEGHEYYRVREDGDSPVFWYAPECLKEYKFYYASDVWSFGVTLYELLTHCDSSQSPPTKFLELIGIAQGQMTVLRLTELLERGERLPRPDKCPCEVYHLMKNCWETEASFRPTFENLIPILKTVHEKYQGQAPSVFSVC
# test summary: TYK2 degradation MSD assay in EBV-B cells
# Type: cell-based
# Parameters: endogenous in cells; host or cells: EBV-B cells
# condition: 4 to 24 hours incubation, read-out: TYK2 MSD DC50 rating in EBV-B
property name: DC50

CNc1cc(Nc2cccn(-c3cccc(C(=O)NCCCCCCCCCCc4cccc5c4n(C)c(=O)n5C4CCC(=O)NC4=O)c3)c2=O)nn2c(C(=O)N[C@@H]3C[C@@H]3F)cnc12 (some centres unmarked) [Example K226] :: > 100 nM
CNC(=O)c1cnc(Nc2ccc(N3CCN(c4ccc5c(c4)n(C)c(=O)n5C4CCC(=O)NC4=O)CC3)cn2)cc1Nc1cccc(-c2ncc(F)cn2)c1OC (centres unmarked) [Example K196] :: > 100 nM
CNc1cc(Nc2cccn(-c3ccc(C(=O)N4CCN(C(=O)C5CC(N6CCC(OCCCc7ccc8c(c7)n(C)c(=O)n8C7CCC(=O)NC7=O)CC6)C5)CC4)cn3)c2=O)nn2c(C(=O)N[C@@H]3C[C@@H]3F)cnc12 (some centres unmarked) [Example K423] :: > 100 nM
CNc1cc(Nc2cccn(-c3ccc(C(=O)N4CC5(C4)CN(c4ncc(C#Cc6ccc7c(c6)n(C)c(=O)n7C6CCC(=O)NC6=O)cn4)C5)cn3)c2=O)nn2c(C(=O)NC3CC3F)cnc12 (centres unmarked) [Example K382] :: < 1 nM

// switching to the query molecule
CNc1cc(N2CCc3c(-c4ccc(CN5CC(C6CCN(C(=O)c7ccc(Cl)c(N8CCC(=O)NC8=O)c7)CC6)C5)cn4)cccc32)nn2c(C(=O)N[C@@H]3C[C@@H]3F)cnc12 [Example K525] has a reported DC50 of > 100 nM

====

# system under test: UniProt:P29597
# test summary: TYK2 degradation MSD assay in OCI-LY10 cells
# Assay type: cell-based
# Set-up: endogenous in cells; host or cells: EBV-B cells
# condition: 4 to 24 hours incubation, read-out: TYK2 MSD DC50 rating in OCI-LY10
Item-by-item account of DC50

CNc1cc(Nc2cccn(-c3ccc(C(=O)N4CCC(OCC#Cc5cccc6c5n(C)c(=O)n6C5CCC(=O)NC5=O)CC4)cn3)c2=O)nn2c(C(=O)N[C@@H]3C[C@@H]3F)cnc12 (some centres unmarked) [Example K421] :: 1 to 10 nM
CNc1cc(N2CCc3c(-c4ccc(CN5CCC(N6CCN(C(=O)c7ccc(Cl)c(N8CCC(=O)NC8=O)c7)CC6)CC5)cn4)cccc32)nn2c(C(=O)N[C@@H]3C[C@@H]3F)cnc12 [Example K559] :: 1 to 10 nM
Cn1c(=O)n(C2CCC(=O)NC2=O)c2cccc(CCCCNc3cc(Nc4cccn(-c5ccccn5)c4=O)nn4c(C(=O)N[C@@H]5C[C@@H]5F)cnc34)c21 (some centres unmarked) [Example K205] :: > 100 nM
CNc1cc(Nc2cccc(CN3CCC4(CC3)CCN(c3ccc5c(c3)[nH]c(=O)n5C3CCC(=O)NC3=O)C4)c2)nn2c(C(=O)NC3CC3)cnc12 (centres unmarked) [Example K601] :: > 100 nM
CNc1cc(N2CCc3c(-c4ccc(CN5CCN(c6ccc(-c7cccc8c7n(C)c(=O)n8C7CCC(=O)NC7=O)cc6)CC5)cn4)cccc32)nn2c(C(=O)N[C@@H]3C[C@@H]3F)cnc12 (some centres unmarked) [Example K494] :: 10 to 100 nM
CNc1cc(Nc2cccc(CN(C)C3CCN(c4ccc5c(c4)n(C)c(=O)n5C4CCC(=O)NC4=O)CC3)c2)nn2c(C(=O)NC3CC3)cnc12 (centres unmarked) [Example K593] :: > 100 nM
CNc1cc(Nc2cccn(-c3cc(C(=O)NCCCCCCc4ccc5c(c4)n(C)c(=O)n5C4CCC(=O)NC4=O)ccn3)c2=O)nn2c(C(=O)N[C@@H]3C[C@@H]3F)cnc12 (some centres unmarked) [Example K229] :: > 100 nM
CNC(=O)c1cnc(Nc2ccc(CN(C)CC3CCN(c4ccc5c(c4)n(C)c(=O)n5C4CCC(=O)NC4=O)CC3)cn2)cc1Nc1cccc(-c2ncc(F)cn2)c1OC (centres unmarked) [Example K135] :: > 100 nM

CNC(=O)c1cnc(NC(=O)NCCCCCCCCc2ccc3c(c2)n(C)c(=O)n3C2CCC(=O)NC2=O)cc1Nc1cccc(-c2ncc(F)cn2)c1OC (centres unmarked) [Example K187] has a reported DC50 of > 100 nM

CNc1cc(Nc2cccn(-c3ccc(C(=O)NCc4ccc(N5CCC(N6CCC(c7ccc8c(c7)n(C)c(=O)n8C7CCC(=O)NC7=O)C6)CC5)cc4)cn3)c2=O)nn2c(C(=O)N[C@@H]3C[C@@H]3F)cnc12 (some centres unmarked) [Example K370] has a reported DC50 of < 1 nM

Cn1c(=O)n(C2CCC(=O)NC2=O)c2ccc(CCCCC(=O)N3CCC(n4cc(-c5ccc6ncc(C(=O)N[C@@H]7C[C@@H]7F)n6n5)cn4)CC3)cc21 (some centres unmarked) [Example K327] has a reported DC50 of > 100 nM

CNc1cc(Nc2cccn(-c3cccc(C(=O)NCCOCCOCCOCCOCCOCCOCCc4ccc5c(c4)n(C)c(=O)n5C4CCC(=O)NC4=O)c3)c2=O)nn2c(C(=O)N[C@@H]3C[C@@H]3F)cnc12 (some centres unmarked) [Example K243] has a reported DC50 of > 100 nM
